For each record, write down the corresponding Ki.

# input Request: Ki, test system Rho kinase 1 (Homo sapiens), entry CC1=C(C(=O)Nc2ccc3cnccc3c2)C(C2Cc3ccccc3C2)n2nc(CN(C)C)cc2N1 (single isomer, unassigned) [Example 124b]
# output < 50 nM

# input What value of Ki on Rho kinase 1 (Homo sapiens) does CC1=C(C(=O)Nc2ccc3cnccc3c2)C(c2ccc(C(F)(F)F)c(F)c2)n2nc(C(=O)NCCN3CCCCC3)cc2N1 (single isomer, unassigned) [77B] have?
# output < 50 nM

# input Test system Rho kinase 1 (Homo sapiens); read-out Ki; what value for CC1=C(C(=O)Nc2ccc3cnccc3c2)C(c2ccc(C(F)(F)F)c(F)c2)n2nc(C3COC3)cc2N1 (stereo not drawn) ?
# output < 50 nM

# input Item CC1=C(C(=O)Nc2ccc3cnccc3c2)C(c2ccc(C(F)(F)F)c(F)c2)n2nc(CO)cc2N1 (single isomer, unassigned) [Example 65B] with Rho kinase 1 (Homo sapiens) - Ki?
# output < 50 nM

# input Any idea what Ki came out for CCOC(=O)c1cc2n(n1)C(c1ccc(O)cc1)C(C(=O)Nc1ccc3cnccc3c1)=C(C)N2 (stereo not drawn) on Rho kinase 1 (Homo sapiens)?
# output < 50 nM

# input What value of Ki on Rho kinase 1 (Homo sapiens) does CC1=C(C(=O)Nc2ccc3cnccc3c2)C(c2ccc(C(F)(F)F)c(F)c2)n2nc(C3CCN(C(=O)CCN4CCCCC4)CC3)cc2N1 (single isomer, unassigned) [135A] have?
# output > 500 nM

###

Hi there, I'd appreciate the recorded pKi for every entry that follows.
pKi: −log10 of the molar value.

# input Value wanted: pKi (Rho kinase 1 (Homo sapiens, UniProt Q13464)) of entry CC1=C(C(=O)Nc2ccc3cnccc3c2)C(c2ccc(C(F)(F)F)c(F)c2)n2nc(C3CCN(C(=O)CCN4CCCCC4)CC3)cc2N1 (single isomer, unassigned) [135B]
# output > 7.30

# input Entry CCOC(=O)c1cc2n(n1)C(c1ccc(O)c(F)c1)C(C(=O)Nc1ccc3cnccc3c1)=C(C)N2 (stereo not drawn) , system Rho kinase 1 (Homo sapiens, UniProt Q13464): what pKi was measured?
# output > 7.30

# input Request - read-out pKi | tested on Rho kinase 1 (Homo sapiens, UniProt Q13464) | molecule CC1=C(C(=O)Nc2ccc3[nH]ncc3c2)C(c2ccc(F)cc2)n2nc(CO)cc2N1 (single isomer, unassigned) [Example 71B]
# output < 6.30

###

measured_parameter: Ki

# input Recorded Ki for CC1=C(C(=O)Nc2ccc3cnccc3c2)C(c2ccc(C(F)(F)F)c(F)c2)n2nc(C(=O)NCCN(C)C)cc2N1 (stereo not shown) with Rho kinase 2 (Homo sapiens, UniProt O75116), please?
# output < 50 nM

# input Record lookup: for Rho kinase 2 (Homo sapiens, UniProt O75116), what Ki belongs to CC1=C(C(=O)Nc2ccc3cnccc3c2)C(c2ccc(C(F)(F)F)c(F)c2)n2nc(C(=O)N(C)CCN3CCCCC3)cc2N1 (single isomer, unassigned) [Example 78A] ?
# output < 50 nM

# input Item CC1=C(C(=O)Nc2ccc3cnccc3c2)C(CCc2ccccc2)n2nc(CO)cc2N1 (stereo not shown) with Rho kinase 2 (Homo sapiens, UniProt O75116) - Ki?
# output < 50 nM

# input What value of Ki on Rho kinase 2 (Homo sapiens, UniProt O75116) does CC1=C(C(=O)Nc2ccc3[nH]ncc3c2)C(c2ccc(F)cc2)n2nc(C(C)(C)C)cc2N1 (stereo not shown) have?
# output < 50 nM

# input Rho kinase 2 (Homo sapiens, UniProt O75116) / Ki / CC1=C(C(=O)Nc2ccc3cnccc3c2)C(c2ccc(C(F)(F)F)c(F)c2F)n2nc(CN(C)C)cc2N1 (single isomer, unassigned) [Example 122b] : value?
# output < 50 nM

# input Return Ki measured with Rho kinase 2 (Homo sapiens, UniProt O75116) given this molecule: CC1=C(C(=O)Nc2ccc3cnccc3c2)C(c2ccc3ncn(C)c3c2)n2nc(CO)cc2N1 (stereo not shown)
# Sequence (O75116 whole entry): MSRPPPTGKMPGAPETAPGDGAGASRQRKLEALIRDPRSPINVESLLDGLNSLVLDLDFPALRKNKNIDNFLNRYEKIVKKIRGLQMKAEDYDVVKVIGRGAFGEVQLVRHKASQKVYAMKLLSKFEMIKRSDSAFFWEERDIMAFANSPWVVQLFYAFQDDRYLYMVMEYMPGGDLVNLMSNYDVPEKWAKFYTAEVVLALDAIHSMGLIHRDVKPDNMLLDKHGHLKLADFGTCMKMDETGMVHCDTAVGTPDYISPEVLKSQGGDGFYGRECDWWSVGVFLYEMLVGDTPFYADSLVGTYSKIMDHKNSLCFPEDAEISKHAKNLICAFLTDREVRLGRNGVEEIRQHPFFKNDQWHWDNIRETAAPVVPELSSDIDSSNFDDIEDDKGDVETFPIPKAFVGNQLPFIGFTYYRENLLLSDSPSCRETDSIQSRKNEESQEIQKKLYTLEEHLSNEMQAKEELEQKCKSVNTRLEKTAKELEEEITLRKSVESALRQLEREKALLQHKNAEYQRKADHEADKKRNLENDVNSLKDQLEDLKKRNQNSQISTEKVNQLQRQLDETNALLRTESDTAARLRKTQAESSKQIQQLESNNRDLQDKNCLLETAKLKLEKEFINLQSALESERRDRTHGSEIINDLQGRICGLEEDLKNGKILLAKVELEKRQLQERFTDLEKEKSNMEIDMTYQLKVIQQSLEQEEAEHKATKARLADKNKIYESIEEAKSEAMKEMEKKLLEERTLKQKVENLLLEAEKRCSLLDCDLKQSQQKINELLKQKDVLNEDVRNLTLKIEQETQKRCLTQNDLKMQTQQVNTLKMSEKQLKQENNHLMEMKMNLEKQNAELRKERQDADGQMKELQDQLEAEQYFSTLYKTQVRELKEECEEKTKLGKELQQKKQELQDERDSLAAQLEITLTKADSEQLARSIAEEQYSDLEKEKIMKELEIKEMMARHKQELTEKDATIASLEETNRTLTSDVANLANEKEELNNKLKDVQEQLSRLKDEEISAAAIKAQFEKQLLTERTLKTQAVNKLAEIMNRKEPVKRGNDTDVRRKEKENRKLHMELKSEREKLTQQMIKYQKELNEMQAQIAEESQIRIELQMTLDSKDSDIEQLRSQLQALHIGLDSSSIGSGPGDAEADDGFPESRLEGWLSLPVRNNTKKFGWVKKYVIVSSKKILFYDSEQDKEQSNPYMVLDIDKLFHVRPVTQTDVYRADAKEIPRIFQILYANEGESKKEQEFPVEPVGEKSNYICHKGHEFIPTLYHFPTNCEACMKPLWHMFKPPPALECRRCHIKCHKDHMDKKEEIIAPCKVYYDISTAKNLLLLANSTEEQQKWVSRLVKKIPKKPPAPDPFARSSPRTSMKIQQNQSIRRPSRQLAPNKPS
# output > 500 nM

# input Rho kinase 2 (Homo sapiens, UniProt O75116) / Ki / CC1=C(C(=O)Nc2ccc3[nH]ncc3c2)C(c2ccc(Cl)nc2)n2nc(C(F)(F)F)cc2N1 (single isomer, unassigned) [Example 32A] : value?
# output > 500 nM

# input Give the reported Ki for CC1=C(C(=O)Nc2ccc3cnccc3n2)C(c2ccc(C(F)(F)F)c(F)c2)n2nc(CN(C)C)cc2N1 (stereo not shown) (system: Rho kinase 2 (Homo sapiens, UniProt O75116)).
# output < 50 nM

# input For Rho kinase 2 (Homo sapiens, UniProt O75116), provide Ki of CC1=C(C(=O)Nc2ccc3cnccc3c2)C(C2COc3ccccc3O2)n2nc(CO)cc2N1 (single isomer, unassigned) [Example 72C] please.
# output 50 to 500 nM

# input So what Ki did CC1=C(C(=O)Nc2ccc3cnccc3c2)C(c2ccc(C(F)(F)F)c(F)c2)n2nc(C(=O)N3CCC(N(C)C)CC3)cc2N1 (stereo not shown) get with Rho kinase 2 (Homo sapiens, UniProt O75116)?
# output < 50 nM

# input Any idea what Ki came out for CC1=C(C(=O)Nc2ccc3cnccc3c2)C(c2ccc(C(F)(F)F)c(F)c2)n2nc(C(=O)N(C)CCN3CCCCC3)cc2N1 (single isomer, unassigned) [Example 78B] on Rho kinase 2 (Homo sapiens, UniProt O75116)?
# output < 50 nM

# input // fetch Rho kinase 2 (Homo sapiens, UniProt O75116) Ki for CC1=C(C(=O)Nc2ccc3cnccc3c2)C(c2ccc(C(F)(F)F)c(F)c2)n2nc(CNC(=O)CCN3CCCCC3)cc2N1 (single isomer, unassigned) [Example 138B]
# output > 500 nM

# input Form entry - test system: Rho kinase 2 (Homo sapiens, UniProt O75116); read-out: Ki; molecule: CC1=C(C(=O)Nc2ccc3[nH]ncc3c2)C(c2ccc(C(F)(F)F)cc2)n2nc(CN3CCOCC3)cc2N1 (stereo not shown)
# output < 50 nM

# input Which measured Ki belongs to CC1=C(C(=O)Nc2ccc3cnccc3c2)C(c2ccc(C(F)(F)F)c(F)c2)n2nc(N3CCN(C)CC3)cc2N1 (stereo not shown) , tested on Rho kinase 2 (Homo sapiens, UniProt O75116)?
# output < 50 nM

# input Hi! What's the reported Ki for CC1=C(C(=O)Nc2ccc3cnccc3c2)C(c2ccc(Br)cc2)n2nc(CO)cc2N1 (single isomer, unassigned) [Example 61B] on Rho kinase 2 (Homo sapiens, UniProt O75116)?
# output 50 to 500 nM

# input Reported Ki for Rho kinase 2 (Homo sapiens, UniProt O75116), given CC1=C(C(=O)Nc2ccc3cnccc3c2)C(c2ccc(C(F)(F)F)c(F)c2)n2nc(CO)cc2N1 (single isomer, unassigned) [Example 65B] ?
# output < 50 nM

# input Recall the recorded Ki for CC1=C(C(=O)Nc2ccc3cnccc3c2)C(c2ccc(C(F)(F)F)cc2)n2nc(CO)cc2N1 (single isomer, unassigned) [Example 43A] with Rho kinase 2 (Homo sapiens, UniProt O75116) and state it.
# output 50 to 500 nM

# input Record CCOC(=O)c1cc2n(n1)C(c1ccc(F)cc1)C(C(=O)Nc1ccc3[nH]ncc3c1)=C(C)N2 (single isomer, unassigned) [Example 4A] : what is its Ki with Rho kinase 2 (Homo sapiens, UniProt O75116)?
# output > 500 nM

# input Entry CC1=C(C(=O)Nc2ccc3cnccc3c2)C(c2ccc(C(F)(F)F)c(F)c2)n2nc(C(=O)NCCN3CCCCC3)cc2N1 (single isomer, unassigned) [77A] , system Rho kinase 2 (Homo sapiens, UniProt O75116): what Ki was measured?
# output > 500 nM

# input Item CC1=C(C(=O)Nc2ccc3cnccc3c2)C(c2ccc(Cl)cc2)n2nc(CO)cc2N1 (single isomer, unassigned) [Example 62B] with Rho kinase 2 (Homo sapiens, UniProt O75116) - Ki?
# output 50 to 500 nM

# input Given the entry CC1=C(C(=O)Nc2ccc3cnccc3c2)C(c2ccc(C(F)(F)F)c(F)c2)n2nc(C(=O)N(C)CC3CCN(C)CC3)cc2N1 (stereo not shown) , what Ki was observed with Rho kinase 2 (Homo sapiens, UniProt O75116)?
# output < 50 nM

# input Record CCOC(=O)c1cc2n(n1)C(C1CCN(C)CC1)C(C(=O)Nc1ccc3[nH]ncc3c1)=C(C)N2 (stereo not shown) : what is its Ki with Rho kinase 2 (Homo sapiens, UniProt O75116)?
# output > 500 nM

# input What is its Ki for Rho kinase 2 (Homo sapiens, UniProt O75116)? Entry: CC1=C(C(=O)Nc2ccc3[nH]ncc3c2)C(c2ccc(C(F)(F)F)cc2)n2nnnc2N1 (single isomer, unassigned) [Example 27B]
# output 50 to 500 nM

# input Reported Ki for Rho kinase 2 (Homo sapiens, UniProt O75116), given CC1=C(C(=O)Nc2ccc3cnccc3c2)C(c2ccc(C(F)(F)F)c(F)c2)n2nc(C(=O)NCCN3CCCCC3)cc2N1 (single isomer, unassigned) [77B] ?
# output < 50 nM

# input Param readout= Ki; system= Rho kinase 2 (Homo sapiens, UniProt O75116); entry= CC1=C(C(=O)Nc2ccc3cnccc3c2)C(c2ccc(C(F)(F)F)c(F)c2)n2nc(C3CCN(C(=O)CCN4CCCCC4)CC3)cc2N1 (stereo not shown) [Example 135] ; returns value.
# output < 50 nM
